Reported values: pIC50 for Human PKK (Homo sapiens), one per item.
pIC50: −log10 of the molar value.
observable: pIC50

1) Cn1cnc2c1CC[C@H]2NC(=O)c1cn(Cc2ccc(N3CC4(CC4)C3)nc2)cn1
8.16
2) COc1nc(N2CC3C(C2)C3(F)F)ccc1Cn1cc(C(=O)N[C@@H]2CCc3c2ncn3C)cn1 (some centres unmarked)
8.55
3) Cn1cnc2c1CC[C@H]2NC(=O)c1cnn(Cc2ccc(N3CC4(CC4)C3)cn2)c1
7.85
4) Cn1cnc2c1CC[C@H]2NC(=O)c1cnn(Cc2ccc(N3CC4(CC4)C3)nc2Br)c1
8.96
5) Cn1cnc2c1CC[C@H]2NC(=O)c1cnn(Cc2ccc(N3CC4CC4C3)c(C#N)c2)c1 (some centres unmarked)
8.82
6) Cn1cnc2c1CC[C@H]2NC(=O)c1cnn(Cc2ccc(N3CC4CC4C3)nc2C(C)(C)C#N)c1 (some centres unmarked)
8.85
7) Cc1nc(N2CC3(CC3)C2)ccc1Cn1cc(C(=O)N[C@@H]2CCc3c2ncn3C)nn1
8.85
8) Cn1cnc2c1CC[C@H]2NC(=O)c1cnn(Cc2ccc(N3CC4CC4C3)nc2C(F)F)c1 (some centres unmarked) [Example 43]
9.05

---

Reported values: log10 IC50 for Human PKK (Homo sapiens), one per item.
observable: log10 IC50 (log10 of the value in nM)

1. CCc1nc(N2CC3C(C2)C3(F)F)ccc1Cn1cc(C(=O)N[C@@H]2CCc3c2ncn3C)nn1 (stereo partly shown) [Example 109]
-0.10
2. Cc1nc(N2CC3CCCC3C2)ncc1Cn1cc(C(=O)N[C@@H]2CCc3c2ncn3C)cn1 (stereo partly shown) [Example 239]
2.09
3. Cn1cnc2c1CC[C@H]2NC(=O)c1cc(Cc2ccc(N3CC4CC4C3)nc2CO)n[nH]1 (stereo partly shown) [Example 220]
0.28
4. CCc1nc(N2CC3C(C2)C3(F)F)ccc1Cc1ccc(C(=O)N[C@@H]2CCc3c2ncn3C)s1 (stereo partly shown) [Example 184]
1.13
5. Cc1nc(N2CC3C(C2)C3(F)F)ccc1Cn1cc(C(=O)N[C@@H]2CCc3c2ncn3C)cn1 (stereo partly shown) [Example 90]
-0.15
6. Cn1cnc2c1CC[C@H]2NC(=O)c1cn(Cc2cnc(N3CC4CC4C3)nc2CO)cn1 (stereo partly shown) [Example 214]
1.31
7. CCc1nc(N2C[C@@H]3[C@H](C)[C@@H]3C2)ccc1Cn1cnc(C(=O)N[C@@H]2CCc3c2ncn3C)c1 [Example 143]
-0.22
8. COCc1nc(N2CC3C(C2)C3(F)F)ccc1Cn1cc(C(=O)N[C@@H]2CCc3c2ncn3C)nn1 (stereo partly shown) [Example 55]
0.36
9. CC(O)c1nc(N2CC3CC3C2)ccc1Cn1cc(C(=O)N[C@@H]2CCc3c2ncn3C)cn1 (stereo partly shown) [Example 88]
-0.05
10. Cc1nc(N2CC3CC3C2)ccc1Cn1cc(C(=O)N[C@@H]2CCc3c2ncn3C)c(C#N)n1 (stereo partly shown) [Example 70]
-0.10
11. Cc1nc(N2CCC3(CCC3)C2)ncc1Cn1cc(C(=O)N[C@@H]2CCc3c2ncn3C)cn1 [Example 240]
1.72
12. CCOCc1nc(N2CC3C(C2)C3(F)F)ccc1Cn1cc(C(=O)N[C@@H]2CCc3c2ncn3C)cn1 (stereo partly shown) [Example 179]
0.62
13. Cn1cnc2c1CC[C@H]2NC(=O)c1cnn(Cc2ccc(N3CC4CC4C3)nc2C(F)F)c1 (stereo partly shown) [Example 48]
0.45
14. Cn1cnc2c1CC[C@H]2NC(=O)c1cnn(Cc2ccc(N3CC4C(C3)C4(F)F)nc2C(F)F)c1 (stereo partly shown) [Example 46]
0.00
15. Cn1cnc2c1CC[C@H]2NC(=O)c1cnn(Cc2ccc(N3CC4C(C3)C4(F)F)nc2Br)c1 (stereo partly shown) [Example 15]
0.04
16. Cn1cnc2c1CC[C@H]2NC(=O)c1cn(Cc2ccc(N3CC4(CC4)C3)nc2CO)nn1 [Example 61]
0.49
17. Cn1cnc2c1CC[C@H]2NC(=O)c1cnn(Cc2ccc(N3CC4(CC4)C3)nc2CO)c1 [Example 79]
0.74
18. Cn1cnc2c1CC[C@H]2NC(=O)c1cc(Cc2ccc(N3CC4CC4C3)nc2)no1 (stereo partly shown) [Example 151]
0.56
19. Cn1cnc2c1CC[C@H]2NC(=O)c1cn(Cc2ccc(N3CC4CC4C3)nc2OC(F)(F)F)cn1 (stereo partly shown) [Example 38]
0.53
20. Cc1nc(N2CC3CC3C2)ncc1Cn1cc(C(=O)N[C@@H]2CCc3c2ncn3C)c2cncnc21 (stereo partly shown) [Example 174]
0.28
21. Cc1nc(N2CCC3CC3C2)ncc1Cn1cc(C(=O)N[C@@H]2CCc3c2ncn3C)cn1 (stereo partly shown) [Example 227]
1.66
22. COCc1nc(N2CC3C(C2)C3(F)F)ccc1Cn1cc(C(=O)N[C@@H]2CCc3c2ncn3C)cn1 (stereo partly shown) [Example 2]
0.49
23. Cn1cnc2c1CC[C@H]2NC(=O)c1cn(Cc2ccc(N3CC4C(C3)C4(F)F)nc2C(F)F)cn1 (stereo partly shown) [Example 45]
-0.15
24. Cc1c(Cn2cnc(C(=O)N[C@@H]3CCc4c3ncn4C)c2)cnc(N2CC3CC3C2)c1C#N (stereo partly shown) [Example 118]
-0.52
25. Cc1nc(N2CCCC3(CC3)C2)ncc1Cn1cc(C(=O)N[C@@H]2CCc3c2ncn3C)cn1 [Example 232]
2.71
26. Cn1cnc2c1CC[C@H]2NC(=O)c1cn(Cc2ccc(N3CC4CC4C3)nc2)nn1 (stereo partly shown) [Example 135]
0.62
27. Cn1cnc2c1CC[C@H]2NC(=O)c1cnn(Cc2cnc(N3CC4CC4C3)c(C#N)c2)c1 (stereo partly shown) [Example 114]
0.26
28. Cc1c(Cn2cc(C(=O)N[C@@H]3CCc4c3ncn4C)cn2)cnc(N2CC3CC3C2)c1C#N (stereo partly shown) [Example 116]
-0.40
29. Cn1cnc2c1CC[C@H]2NC(=O)c1cnn(Cc2cc(C#N)c(N3CC4CC4C3)c(C#N)c2)c1 (stereo partly shown) [Example 197]
1.13
30. Cn1cnc2c1CC[C@H]2NC(=O)c1cnn(Cc2cc(F)c(N3CC4CC4C3)c(F)c2)c1 (stereo partly shown) [Example 191]
2.23
31. Cn1cnc2c1CC[C@H]2NC(=O)c1cn(Cc2ccc(N3CC4C(C3)C4(F)F)cc2F)cn1 (stereo partly shown) [Example 212]
0.32
